MEASUREMENT TARGET: HLA-A*02:01
PROTOCOL DESCRIPTION: IEDB peptide-MHC binding, purified MHC/direct/fluorescence; filed as Kd, often an IC50 or EC50 that approximates it; bounds were set here for any values at or beyond the usual limits of such assays
TEST PARAMETERS: source organism: Francisella tularensis subsp. holarctica LVS
pKd: −log10 of the molar value.
OUTCOME MEASURE: pKd

// recorded pKd for `EFKRRLKDL` : ≤ 4.70

* * *

MEASUREMENT TARGET: HLA-A*11:01
PROTOCOL DESCRIPTION: IEDB peptide-MHC binding, purified MHC/competitive/radioactivity; filed as Kd, often an IC50 or EC50 that approximates it; bounds were set here for any values at or beyond the usual limits of such assays
TEST PARAMETERS: source organism: Vaccinia virus WR
OUTCOME MEASURE: Kd (nM)
Give bare numbers, in nM.

I have 5 sequences here; please give me Kd for each one.
1. VSTGESSILR
2. TMPNESRVK
3. KSIENKHQR
4. GVRVRVAVNK
5. STAEQLSKY

Outgoing:
1: 204; 2: 930; 3: 29.4; 4: 840; 5: 133
